The origin of these recorded values is PubChem BioAssay (EPA / NIEHS).

Protocol Summary: ACEA_ER_80hr: ACEA Biosciences xCELLigence Real-Time Cell Analysis on Estrogen Receptor Agonism for Proliferation (AID 2282667)
Experimental Setup: T47D proliferation, impedance (xCELLigence), 80 h
Inconclusive results are not listed. Calls of active or inactive are those of the source. How the source made its calls: active means hit-call score of the fitted dose curve at least 0.9, where 1 is the maximum; inconclusive means response in the unintended direction; inactive means score below 0.9.
Outcomes: True (active), False (inactive)

Compound	Discrete Label
CCCCCCS	False
c1ccc(B(c2ccccc2)c2ccccc2)cc1	True
CC/C=C\CCOC(C)=O	False
O=C(OCCOCCOCCOC(=O)c1ccccc1)c1ccccc1	True
Cc1ccc(S(=O)(=O)OCC(F)(F)C(F)(F)C(F)(F)C(F)(F)C(F)(F)C(F)F)cc1	False
FC(F)(Br)C(F)(F)C(F)(F)C(F)(F)C(F)(F)C(F)(F)Br	True
CO[Si](OC)(c1ccccc1)c1ccccc1	False
CC(CCl)OP(=O)(OC(C)CCl)OC(C)CCl (stereo not drawn)	False
COC(=O)CCC(F)(F)C(F)(F)C(F)(F)C(F)(F)F	False
CC/C=C\CCOC(=O)c1ccccc1	False
CS(C)(=O)=O	False
CCCCNc1ccccc1	False
C=CC(F)(F)C(F)(F)C(F)(F)C(F)(F)C(F)(F)C(F)(F)C(F)(F)C(F)(F)F	False
